- Test system: SK-OV-3 ovarian
- PROTOCOL TEXT: NCI tumour cell line growth inhibition, 48 h
REPORTED METRIC: TGI

# query: TGI of entry O=C1NC(N2CCOCC2)=N/C1=C\c1ccc(O)cc1
> 100 µM

Name the recorded TGI for CCOC(=O)CCC(C(=O)OCC)n1nnc2cc(Nc3c(C)[n+]([O-])c4cc(F)c(OCC)cc4[n+]3[O-])ccc21 (stereo not drawn) .
> 100 µM

Look up TGI: O=c1[nH]nc(Cc2ccc(Cl)cc2)n1/N=C/c1ccc([N+](=O)[O-])o1
> 36.3 µM

----------
- Test system: KM12 colon
- PROTOCOL TEXT: NCI tumour cell line growth inhibition, 48 h; in the data active means GI50 below about 0.43 µM; inactive means the rest
Answer with one of the outcomes given here: true (active), false (inactive)

Any idea what this test logged for CCC[CH2][Sn]([CH2]CCC)([S]C#N)[S]C#N ?
false

Dear colleague, could you share the recorded outcome for N#CC1=C(N)Oc2c(ccc3ccccc23)C1c1cc(=O)oc2ccc(Cl)cc12 (configuration not stated) when you have a moment?
false

Query: recorded result category for CC(=O)OC12C=C(C)C(C(C)C1)C1C(=O)N(CCN3CCCCC3)C(=O)C12 (configuration not stated) in this test
false

State the result this test recorded for NC(=O)c1ccc(Oc2nccc(-c3c(-c4ccc(F)cc4)ncn3C3CCNCC3)n2)cc1 .
false

Write down the call the test reported for this compound. Item: O=C(NCCCc1cn[nH]c1)c1ccc(-c2ccncc2)c(C#Cc2ccc(F)cc2)c1
true

Which result was noted for this compound in the test: CCCCCCSSC(=S)N(CC)CC
false

Please state the recorded outcome for this compound: [N-]=[N+]=NCCCn1c2c(c3ccc([N+](=O)[O-])cc3c1=O)C(=O)c1cc(Br)ccc1-2
false

Can you look up the reported call for CN=C1C=CC(=C(c2ccc(N(C)C)cc2)c2ccc(N(C)C)cc2)C=C1 for me?
true

Please indicate how the test categorized CNCCCNc1nc2ccccc2c2c(=O)c3cc(OC)ccc3sc12 .
false

Please indicate how the test categorized CCCCCC(O)C(O)CCC[C@H](O)[C@H]1CC[C@H]([C@H]2CC[C@H]([C@H](O)CCCCCCCCCCCCC3=C[C@H](C)OC3=O)O2)O1 (some centres not stated) .
false

Outcome logged for CCN(CC)CCCC(C)Nc1cc(-c2cccc(OC(F)(F)F)c2)nc2ccc(N3CCCC3)cc12 (configuration not stated) in this assay:
true

Give the logged outcome of this assay for the following compound: O=C(NNc1ccc(Cl)cc1)C1CCC(CNS(=O)(=O)c2ccccc2Cl)CC1 (configuration not stated)
false

----------
- Tested on: K-562 leukemia
- PROTOCOL TEXT: NCI tumour cell line growth inhibition, 48 h
# label = condition met if TGI >= 20 µM else condition not met

hey, is TGI for this one >= 20 µM? COC(=O)Nc1nc2ccccc2[nH]1
condition met

Is it the case that CSc1cnc2ccccc2c1Sc1c[nH]c2ccccc2c1=O has TGI reaching or exceeding 20 µM?
condition met

Reported TGI at or above 20 µM? CCOc1cc2c(cc1O)C(O)C[C@@H]1[C@@H]2CC[C@]2(C)[C@@H](O)CC[C@@H]12 (some centres not stated)
condition met

Decide: TGI of CCCCCCCCCCCCC(O)c1ccco1 (configuration not stated) >= 20 µM?
condition met

Does the reported TGI for CC(C)N(Cc1ccc(CN(C(=O)CCl)C(C)C)cc1)C(=O)CCl fall at or above the 20 µM mark?
condition not met

Item COc1cc(/C=C/c2ccc(O)c(OC)c2)cc(OC)c1 with TGI of 20 µM or above?
condition met

Exam item: decide whether the reported TGI for O=C(NC(=O)c1c(Cl)nc2sccn12)Nc1ccc(Cl)cc1 is at least 20 µM.
condition met

Quick check: does Cc1ccc(S(=O)(=O)NC(=O)C2=C3SCCN3C(=O)N(S(=O)(=O)c3ccc(C)cc3)C2c2ccccc2)cc1 (configuration not stated) have TGI greater than or equal to 20 µM?
condition met

Form field: TGI at least 20 µM? Entry: CSc1nc2nc3c(nc2c(=O)n1C)C(=O)c1ccccc1C3=O
condition not met

// inclusive: TGI at least 20 µM? input: c1ccc(OCCC[P+](c2ccccc2)(c2ccccc2)c2ccccc2)cc1
condition not met

Has CC(C)c1cc(C(C)C)c(S(=O)(=O)N=[N+]=[N-])c(C(C)C)c1 a recorded TGI greater than or equal to 20 µM?
condition met

State whether the measured TGI reaches 20 µM, counting equality as reaching it, for COc1nc(C#CC2CCCCC2)nc(OC)n1
condition met

Evaluate O=C(/C=C/C=C/c1ccccc1)c1ccco1 : TGI at minimum 20 µM?
condition met

Dear colleague, could you confirm whether CCCCCCCCOc1ccc(/C=C/C2=[N+](CCO)CCO2)cc1 has TGI at or above 20 µM?
condition not met

Record N/C(=N\N=C\c1ncccc1O)NO ; criterion: TGI no lower than 20 µM. Met?
condition met

// inclusive: TGI at least 20 µM? input: CC(CNC(N)=O)NC(N)=O (configuration not stated)
condition met

In plain terms: is recorded TGI at least 20 µM for O=C1/C(=C/c2cccc3ccccc23)CCc2ccc([N+](=O)[O-])cc21 ?
condition met

----------
Task for the reader: assign each of the following molecules its reported GI50.
- Test system: OVCAR-4 ovarian
- PROTOCOL TEXT: NCI tumour cell line growth inhibition, 48 h

Which measured GI50 value corresponds to O=C(Nc1ccccc1I(=O)=O)C1CCCCC1 ?
> 100 µM

Requested read-out: GI50. Entry: COc1ccc(-c2cncn2-c2cc(OC)c(OC)c(OC)c2)cc1
> 36.3 µM

What value of GI50 has been recorded for this entry: CC(C)N(Cc1ccc(CN(C(=O)CCl)C(C)C)cc1)C(=O)CCl
1.38 µM

Recorded GI50 of NC(=O)c1ccc(Oc2nccc(-c3c(-c4ccc(F)cc4)ncn3C3CCNCC3)n2)cc1 , please.
> 25 µM

----------
What TGI was measured for each of the following?
- Tested on: COLO 205 colon
- PROTOCOL TEXT: NCI tumour cell line growth inhibition, 48 h

If you can, please state the reported TGI value of OC(NN=C1CCCC1)(C(F)(F)Cl)C(F)(F)Cl .
> 10 µM

Tell me the measured TGI of CCOC(=O)CCC(C(=O)OCC)n1nnc2cc(Nc3c(C)[n+]([O-])c4cc(F)c(OCC)cc4[n+]3[O-])ccc21 (stereo not given) , please.
> 100 µM

Give its TGI value. Item: Cc1c(C(=O)O)n(C)c(=O)n(C)c1=O
> 100 µM

I'd like to know its TGI. The compound in question is COc1cc(/C=C/c2ccc(O)c(OC)c2)cc(OC)c1
> 100 µM

For the compound shown here, COc1cc2nc(-c3cccs3)nc(Nc3cccc(Cl)c3)c2cc1OC , give the reported TGI.
> 100 µM

----------
- System: UO-31 renal
- PROTOCOL TEXT: NCI tumour cell line growth inhibition, 48 h
REPORTED METRIC: TGI

Please look up its TGI: COc1cc(OC)cc(C2C3=C(COC3=O)Nc3cc(OC)ccc32)c1 (configuration not stated)
> 67.7 µM

# query: TGI of entry CC(C)c1cc(C(C)C)c(S(=O)(=O)N=[N+]=[N-])c(C(C)C)c1
> 100 µM

What value of TGI has been recorded for this entry: Cc1c(C(=O)O)n(C)c(=O)n(C)c1=O
> 100 µM

I would be grateful if you could share the reported TGI for CN1Cc2ccccc2/C=C\c2ccccc21 .
> 100 µM

Given the entry COc1ccc(-c2nc(-c3nc4ccc(C)cc4[nH]3)cc3c2[nH]c2ccccc23)cc1 , report its measured TGI.
> 100 µM

Quick one: TGI of O=C(NC(=O)c1c(Cl)nc2sccn12)Nc1ccc(Cl)cc1 ?
> 84.4 µM

Recorded TGI for Cc1c2cccc-2ccc2c3ccccc3n(C(=O)c3ccc(Cl)cc3)c12 , please?
> 100 µM

TGI lookup needed for COc1ccccc1NC(=O)CC(=O)NN , thanks.
> 100 µM

Sample Cc1ccc(C)c(N2C(=O)C(=O)C(c3nc4ccccc4o3)C(=O)C2=O)c1 — what was its TGI?
> 100 µM

For the compound shown here, O=C1CSC(c2ccccc2Cl)N1c1nnc(Cn2cnnc2)o1 (configuration not stated) , give the reported TGI.
> 100 µM

Bench note: what TGI did CC1(C)O[C@@H](C[C@]2(C#N)C[C@H](CCl)OC(C)(C)O2)C[C@@H](C#N)O1 show?
> 100 µM

Reported TGI for COc1ccccc1C1C(C#N)=C(N)Oc2n[nH]c(C)c21 (configuration not stated) : what is it?
> 100 µM

----------
- System: OVCAR-3 ovarian
- PROTOCOL TEXT: NCI tumour cell line growth inhibition, 48 h
Consider the following compounds; for each one, report its TGI.

Please report the recorded TGI for O=C(C(=O)n1ncc(Cl)c(Cl)c1=O)n1ncc(Cl)c(Cl)c1=O .
68.2 µM

Record request: TGI value, item CN(C)CC1CCC(CN(C)C)C(=O)C1=O (configuration not stated)
5.32 µM

Entry under review: COc1ccc2nc(C(=O)c3ccccc3)c(C)cc2c1 . Reported TGI?
> 24.3 µM

Would you kindly share the measured TGI for COC(=O)Nc1nc2ccc(NC(=O)c3ccc(I)cc3)cc2[nH]1 ?
> 100 µM

What does the data say about its TGI? Entry: CSc1cnc2ccccc2c1Sc1c[nH]c2ccccc2c1=O
22 µM

For CC(C)(C)C1=C(Br)C(O)(C(C)(C)C)OP1(=O)c1ccccc1 (configuration not stated) , what is its reported TGI?
> 100 µM

Given the compound COc1ccc(C)cc(=O)c1O , what is its reported TGI?
> 100 µM

Hey, just so you know, these numbers are from PubChem BioAssay (NCI).
